tested on: SF-539 CNS; assay: NCI-60 one-dose screen, 48 h; conditions: 10 µM unless noted
Compounds without any hit were thinned out: in the full panel of roughly 83,000, 20% have a hit. The source made the active and inactive calls. How the source made its calls: active means growth percent below 10; inactive means the rest.
Your answer must be one of the following: active, inactive

Use these answered entries as a reference point.
[[record]]
molecule = "C=C1C(=O)O[C@H]2[C@H]1CC/C(CNC(=O)/C=C/c1ccccc1F)=C\\CC[C@@]1(C)O[C@@H]21"
labelvalue = "active"

[[record]]
molecule = "O=C(Nc1nc(-c2ccccc2Cl)cs1)c1cc(-c2ccccc2)nc2ccc(Cl)cc12"
labelvalue = "active"

[[record]]
molecule = "Fc1cc(C2=NNC(c3ccc[nH]3)C2)ccc1-n1ccc(C(F)(F)F)n1 (stereo unspecified)"
labelvalue = "inactive"

[[record]]
molecule = "O=C(N=Nc1c(O)[nH]c2ccc(F)cc12)c1cc2ccccc2[nH]1"
labelvalue = "inactive"

[[record]]
molecule = "CC[N+](CC)(CCCC(C)[N+]1(Cc2ccccc2)C(C)=CC=C1C)Cc1ccccc1 (stereo unspecified)"
labelvalue = "inactive"

[[record]]
molecule = "COc1nccnn1"
labelvalue = "inactive"

[[record]]
molecule = "CCCN=C(N)c1ccc(NC(=O)c2ccc(C(=O)Nc3ccc(C(N)=NCCC)cc3)cc2)cc1"
labelvalue = "inactive"

[[record]]
molecule = "FC(F)(F)c1cccc(Oc2ccc(Nc3ncnc4ccc(OCCCN5CCOCC5)cc34)cc2Cl)c1"
labelvalue = "inactive"

[[record]]
molecule = "C=C(C)[C@@H]1CC[C@]2(C=O)CC[C@]3(C)[C@H](CC[C@@H]4[C@@]5(C)CCCNC(C)(C)[C@@H]5CC[C@]43C)[C@@H]12"
labelvalue = "inactive"

[[record]]
molecule = "NS(=O)(=O)c1cccc(NC(=O)C(=O)C2C(=O)Nc3ccccc32)c1 (stereo unspecified)"
labelvalue = "inactive"


## Input Field: outcome | Entry: `Nc1c(Cl)cc([N+](=O)[O-])cc1Br`
## Output inactive

## Input Field: outcome | Entry: `Cn1c(=O)c2[nH]c(CCCc3nc4c([nH]3)c(=O)n(C)c(=O)n4C)nc2n(C)c1=O`
## Output inactive

## Input Field: outcome | Entry: `C#Cc1cccc(NC(=O)Nc2ccc(NC(=O)CCl)cc2)c1`
## Output active

## Input Field: outcome | Entry: `COc1cc(C(=O)/C=C/c2c(C)n([O-])c3ccc(Cl)cc3[n+]2=O)cc(OC)c1OC`
## Output inactive

## Input Field: outcome | Entry: `c1ccc(-c2nn(-c3ccccc3)[n+](-c3ccccc3-c3ccccc3)n2)cc1`
## Output inactive

## Input Field: outcome | Entry: COc1cc(OC)cc(C2C3=C(COC3=O)Nc3cc(OC)ccc32)c1 (stereo unspecified)
## Output active

## Input Field: outcome | Entry: `Nc1nc(N)nc(NCc2ccccc2)n1`
## Output inactive

* * *

System: CAKI-1 renal
Assay: NCI-60 one-dose screen, 48 h (100 = growth as untreated, 0 = no growth, -100 = all killed)
Conditions: 10 µM unless noted
Protocol: Growth inhibition of the CAKI-1 human tumor cell line is measured as a screen for anti-cancer activity. Cells are grown in 96 well plates and exposed to the test compound for 48 hours. Compounds are tested at a single concentration, which is 10^-5 M for most compounds. The reported endpoint is percent growth (GI% or GIPRCNT), where numbers from 0 - 100% represent growth inhibition, and numbers from -100% - 0 represent cell death. For example, a value of 40 represents 60% growth inhibition. […]
About 83,000 compounds went through this panel and 20% of them were active in at least one assay; those are over-represented in the sample as a whole.
recordedEndpoint: growth (%)
I only need the number, in %, no unit after it.

[[record]]
compoundstructure = "C=C(C)[C@@H]1CC[C@]2(C=O)CC[C@]3(C)[C@H](CC[C@@H]4[C@@]5(C)CCCNC(C)(C)[C@@H]5CC[C@]43C)[C@@H]12"
recordedendpoint = "growth"
assayresult = 89.4

[[record]]
compoundstructure = "COc1cc(NCCCN(CC(C)C)CC(C)C)c2ncccc2c1"
recordedendpoint = "growth"
assayresult = 92.4

[[record]]
compoundstructure = "O=CNc1cc(Cl)cc(Cl)c1"
recordedendpoint = "growth"
assayresult = 92.3

[[record]]
compoundstructure = "COc1ccc(/C(C)=N/NC(=O)CSc2nc3ccccc3c(=O)n2Cc2ccc(S(N)(=O)=O)cc2)c(OC)c1"
recordedendpoint = "growth"
assayresult = 89.9

[[record]]
compoundstructure = "FCc1nc2nc(Cl)c(Cl)nc2[nH]1"
recordedendpoint = "growth"
assayresult = 91.6


Now for a further compound.
## Input Which growth is reported for this compound? `CCN(CC)CCCCCCNc1cc(OC)cc2cccnc12`
## Output 90.4
